Source of measurements: patent US20240246913A1

- test.system: VIM-2 (Escherichia coli)
- assay: MBL inhibition, FC-5 fluorescence assay, VIM-2
- Assay type: biochemical
- setup.conditions: FC-5 cephalosporin substrate, ranges of obtained pIC50, read-out: pIC50 VIM-2 (converted)
IC50 listing for selected compounds.

compound: C[C@@H](c1cccc2c(-c3cc(O)nc(O)c3)c(C(=O)O)[nH]c12)N1C[C@]2(C[C@@H](CN)C2)OC1=O [IC-31]
IC50: 1 to 10 nM
--
compound: C[C@@H](c1cccc2c(-c3c[nH]c(=O)c(F)c3)c(C(=O)O)[nH]c12)N1C[C@]2(C[C@@H](CN)C2)OC1=O [IC-26]
IC50: 0.1 to 1 nM
--
compound: CNc1cc(-c2c(C(=O)O)[nH]c3c([C@H](C)N4C[C@]5(C[C@@H](CN)C5)OC4=O)cccc23)ccn1 [IC-35]
IC50: 0.1 to 1 nM

# get_value(readout='IC50', item= C[C@@H](c1cccc2c(-c3ccncc3)c(C(=O)O)[nH]c12)N1C[C@]2(C[C@@H](CN)C2)OC1=O [IC-38] )
0.1 to 1 nM

# get_value(readout='IC50', item= C[C@@H](c1cccc2c(-c3cccnc3)c(C(=O)O)[nH]c12)N1C[C@]2(C[C@@H](CN)C2)OC1=O [IC-39] )
1 to 10 nM
